Target: Phosphatidylinositol 4,5-bisphosphate 3-kinase catalytic subunit delta isoform (Homo sapiens)
Sequence (O00329 whole entry): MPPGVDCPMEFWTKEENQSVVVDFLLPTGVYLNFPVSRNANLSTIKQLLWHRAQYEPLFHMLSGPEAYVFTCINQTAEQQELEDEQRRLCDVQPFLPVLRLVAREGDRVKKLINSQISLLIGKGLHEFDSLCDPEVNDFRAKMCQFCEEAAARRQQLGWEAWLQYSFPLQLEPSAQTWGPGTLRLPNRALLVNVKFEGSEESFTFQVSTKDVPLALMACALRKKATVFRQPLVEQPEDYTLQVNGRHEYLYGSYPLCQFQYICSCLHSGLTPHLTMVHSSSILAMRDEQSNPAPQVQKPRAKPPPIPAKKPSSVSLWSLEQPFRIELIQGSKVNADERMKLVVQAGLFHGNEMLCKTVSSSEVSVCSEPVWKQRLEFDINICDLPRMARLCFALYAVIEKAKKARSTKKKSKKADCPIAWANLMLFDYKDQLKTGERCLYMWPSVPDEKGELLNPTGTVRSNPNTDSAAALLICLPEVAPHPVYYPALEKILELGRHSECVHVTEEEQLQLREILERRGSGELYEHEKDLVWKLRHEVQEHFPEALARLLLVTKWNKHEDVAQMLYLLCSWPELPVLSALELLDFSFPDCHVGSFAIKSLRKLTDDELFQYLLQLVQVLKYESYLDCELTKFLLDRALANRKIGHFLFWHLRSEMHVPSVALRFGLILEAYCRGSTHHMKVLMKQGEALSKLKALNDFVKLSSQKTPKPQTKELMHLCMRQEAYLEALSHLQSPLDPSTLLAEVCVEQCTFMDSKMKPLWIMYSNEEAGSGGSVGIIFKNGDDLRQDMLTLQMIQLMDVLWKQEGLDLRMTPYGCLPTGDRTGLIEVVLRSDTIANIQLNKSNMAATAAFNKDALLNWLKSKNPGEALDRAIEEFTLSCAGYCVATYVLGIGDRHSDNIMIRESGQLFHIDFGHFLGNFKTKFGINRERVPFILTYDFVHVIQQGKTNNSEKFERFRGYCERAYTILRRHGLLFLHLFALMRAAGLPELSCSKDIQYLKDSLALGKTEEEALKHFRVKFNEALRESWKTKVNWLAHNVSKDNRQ
Assay: Inhibition of PI3Kdelta (unknown origin) using PIP2 as substrate preincubated for 1 hr followed by substrate addition and measured after 60 mins in presence of ATP by ADP-glo assay
readout kind: pIC50
One number for each entry, as −log10 of the molar value.

input smiles	pIC50
Cc1cc(-c2ccn3nc(N)c(C(=O)NC4CC4)c3n2)cc2c1C(=O)N([C@@H](C)C1CC1)C2	5.78

Exercise: # return recorded pIC50 for input Cc1cc(-c2ccn3nc(N)c(C(=O)NC4CCC4)c3n2)cc2c1C(=O)N([C@@H](C)C1CC1)C2
Solution: 5.80

====

For each record, write down the corresponding pIC50.
Target: Phosphatidylinositol 4,5-bisphosphate 3-kinase catalytic subunit delta isoform (Homo sapiens, UniProt O00329)
Sequence (O00329 whole entry): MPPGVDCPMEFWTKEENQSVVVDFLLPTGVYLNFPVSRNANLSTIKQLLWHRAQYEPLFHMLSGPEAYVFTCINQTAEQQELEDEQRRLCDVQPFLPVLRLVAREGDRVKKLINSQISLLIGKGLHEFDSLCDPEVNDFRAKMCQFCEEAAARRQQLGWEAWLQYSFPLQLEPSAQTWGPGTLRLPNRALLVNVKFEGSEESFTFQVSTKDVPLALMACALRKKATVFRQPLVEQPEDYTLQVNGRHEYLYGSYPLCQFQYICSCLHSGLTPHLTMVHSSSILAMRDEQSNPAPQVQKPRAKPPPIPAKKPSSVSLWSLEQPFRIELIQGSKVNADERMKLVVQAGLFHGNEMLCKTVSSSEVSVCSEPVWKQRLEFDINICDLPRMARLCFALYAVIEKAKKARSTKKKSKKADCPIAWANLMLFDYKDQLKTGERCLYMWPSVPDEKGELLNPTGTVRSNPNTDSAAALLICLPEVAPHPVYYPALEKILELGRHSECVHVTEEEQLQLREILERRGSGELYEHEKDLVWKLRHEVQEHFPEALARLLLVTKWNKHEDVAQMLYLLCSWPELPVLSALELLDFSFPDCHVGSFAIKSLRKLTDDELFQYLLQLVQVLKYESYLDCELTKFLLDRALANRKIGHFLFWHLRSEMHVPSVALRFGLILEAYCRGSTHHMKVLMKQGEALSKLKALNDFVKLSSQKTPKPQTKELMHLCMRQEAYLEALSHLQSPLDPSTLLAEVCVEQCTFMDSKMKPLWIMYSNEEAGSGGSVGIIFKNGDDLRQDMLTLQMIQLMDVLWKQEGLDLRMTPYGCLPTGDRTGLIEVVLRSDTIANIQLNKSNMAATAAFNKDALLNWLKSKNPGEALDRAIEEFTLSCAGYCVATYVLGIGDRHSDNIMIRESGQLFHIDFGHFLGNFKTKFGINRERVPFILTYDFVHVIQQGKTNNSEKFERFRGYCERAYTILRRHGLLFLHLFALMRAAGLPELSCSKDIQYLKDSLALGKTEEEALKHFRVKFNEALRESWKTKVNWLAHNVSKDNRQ
Assay: Inhibition of PI3Kdelta (unknown origin) using PIP2 as substrate preincubated for 1 hr followed by substrate addition and measured after 60 mins in presence of ATP by ADP-glo assay
Give bare numbers, as −log10 of the molar value.

input smiles	pIC50
Cc1cc(-c2ccn3nc(N)c(C(=O)NC4COC4)c3n2)cc2c1C(=O)N([C@@H](C)C1CC1)C2	6.16

Okay, here is my list. What is pIC50 for each of these?
1. C[C@@H](C1CC1)N1Cc2cc(-c3ccn4nc(N)c(C(=O)NC5CC5)c4n3)cc(Cl)c2C1=O
2. CCS(=O)(=O)c1cc(-c2ccn3nc(N)c(C(=O)NC4CC4)c3n2)cc2c1C(=O)N([C@@H](C)C1CC1)C2
3. C[C@@H](C1CC1)N1Cc2cc(-c3ccn4nc(N)c(C(=O)N[C@@H](CO)C5CC5)c4n3)cc(NS(C)(=O)=O)c2C1=O

Solution:
[5.84, 6.08, 6.00]

====

target: CYP3A4 (Homo sapiens); test: in vitro; conditions: human liver microsomes, probe midazolam
Sequence (P08684 whole entry): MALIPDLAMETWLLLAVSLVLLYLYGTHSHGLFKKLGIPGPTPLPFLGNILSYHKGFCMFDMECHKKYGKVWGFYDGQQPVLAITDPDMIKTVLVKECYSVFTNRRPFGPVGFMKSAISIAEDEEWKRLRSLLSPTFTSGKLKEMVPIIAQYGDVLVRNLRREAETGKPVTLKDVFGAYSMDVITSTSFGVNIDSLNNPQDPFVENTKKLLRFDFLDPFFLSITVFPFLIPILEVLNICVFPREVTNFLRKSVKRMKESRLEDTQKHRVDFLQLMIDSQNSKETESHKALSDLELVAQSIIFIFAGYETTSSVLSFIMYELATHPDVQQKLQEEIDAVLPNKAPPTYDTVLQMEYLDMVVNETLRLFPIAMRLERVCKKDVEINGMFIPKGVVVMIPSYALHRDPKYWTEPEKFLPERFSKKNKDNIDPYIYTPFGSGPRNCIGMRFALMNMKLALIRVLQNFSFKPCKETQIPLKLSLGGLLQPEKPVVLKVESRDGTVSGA
Description: Time dependent inhibition of CYP3A4 in human liver microsomes at 10 uM using midazolam as substrate preincubated for 30 mins in presence of NADPH by LC/MS/MS analysis relative to control
readout kind: inhibition at 30 min, 10 µM (%)
One number for each entry, in %.

input smiles	target or system	inhibition at 30 min, 10 µM / %
Cc1cc(-c2ccn3ncc(C(=O)Nc4cnn(C)c4)c3n2)cc2c1C(=O)N([C@@H](C)C1CC1)C2	CYP3A4 (Homo sapiens)	33
CNS(=O)(=O)c1cc(-c2ccn3nc(N)c(C(=O)NC4CC4)c3n2)cc2c1C(=O)N([C@@H](C)C1CC1)C2	CYP3A4 (Homo sapiens)	34

Okay, here is my list. What is inhibition at 30 min, 10 µM for each of these?
1. C[C@@H](C1CC1)N1Cc2cc(-c3ccn4nc(N)c(C(=O)N[C@@H](CO)C5CC5)c4n3)cc(OC(F)(F)F)c2C1=O
2. Cc1cc(-c2ccn3nc(N)c(C(=O)NC4CCC4)c3n2)cc2c1C(=O)N([C@@H](C)C1CC1)C2
3. CCS(=O)(=O)c1cc(-c2ccn3nc(N)c(C(=O)NC4CC4)c3n2)cc2c1C(=O)N([C@@H](C)C1CC1)C2
4. Cc1cc(-c2ccn3ncc(-c4cnn(C)c4)c3n2)cc2c1C(=O)N([C@@H](C)C1CC1)C2
5. C[C@@H](C1CC1)N1Cc2cc(-c3ccn4nc(N)c(C(=O)NC5CC5)c4n3)cc(OC(F)F)c2C1=O
6. COc1cc(-c2ccn3nc(N)c(C(=O)NC4CC4)c3n2)cc2c1C(=O)N([C@@H](C)C1CC1)C2
7. Cc1cc(-c2ccn3nc(N)c(C(=O)NC4COC4)c3n2)cc2c1C(=O)N([C@@H](C)C1CC1)C2

Solution:
[6, 46, 16, 67, 16, 28, 12]

Exercise: # return recorded inhibition at 30 min, 10 µM for input C[C@@H](C1CC1)N1Cc2cc(-c3ccn4nc(N)c(C(=O)N[C@H]5CC[C@](O)(C(F)(F)F)CC5)c4n3)cc(NS(C)(=O)=O)c2C1=O
Solution: 17

====

For each record, write down the corresponding hepatocyte intrinsic clearance.
test: Metabolic stability in rat hepatocyte assessed as intrinsic clearance per 10^8 cells at 0.5 uM by LC-MS/MS analysis; assay type: ADME, cell-based; conditions: hepatocytes
Give bare numbers, in µL/min.

See these solved cases before continuing.
input smiles	result value
Cc1cc(-c2ccn3nc(N)c(C(=O)N[C@@H]4CC[C@@H](O)C4)c3n2)cc2c1C(=O)N([C@@H](C)C1CC1)C2	24.6
Cc1cc(-c2ccn3nc(N)c(C(=O)NC4CCC4)c3n2)cc2c1C(=O)N([C@@H](C)C1CC1)C2	82.7
Cc1cc(-c2ccn3nc(N)c(C(=O)N[C@H]4CCOC4)c3n2)cc2c1C(=O)N([C@@H](C)C1CC1)C2	13
CNS(=O)(=O)c1cc(-c2ccn3nc(N)c(C(=O)N[C@@H](CO)C4CC4)c3n2)cc2c1C(=O)N([C@@H](C)C(F)(F)F)C2	3.82
C[C@H](N1Cc2cc(-c3ccn4nc(N)c(C(=O)N[C@@H](CO)C5CC5)c4n3)cc(OC(F)F)c2C1=O)C(F)(F)F	8.28
C[C@@H](C1CC1)N1Cc2cc(-c3ccn4nc(N)c(C(=O)NC5CC5)c4n3)cc(S(=O)(=O)C3CCC3)c2C1=O	4.14
C[C@@H](C1CC1)N1Cc2cc(-c3ccn4nc(N)c(C(=O)N[C@H]5CC[C@](C)(O)CC5)c4n3)cc(NS(C)(=O)=O)c2C1=O	8.24
Cc1cc(-c2ccn3nc(N)c(C(=O)N[C@H]4CNC(=O)C4)c3n2)cc2c1C(=O)N([C@@H](C)C1CC1)C2	2.73

Exercise: # return recorded hepatocyte intrinsic clearance for input C[C@H](N1Cc2cc(-c3ccn4nc(N)c(C(=O)N[C@@H](CO)C5CC5)c4n3)cc(NS(C)(=O)=O)c2C1=O)C(F)(F)F
Solution: 2.48

Data credit: ChEMBL document CHEMBL5154644
